Data origin: paper doi:10.1101/2020.12.12.421834

# Target Desc: T1, PD1 N-terminal loop-GST fusion protein (Homo sapiens)
# T1 chain: LDSPDRPWNP
# Test Method Notes: ELISA

| Binder | binding result |
| --- | --- |
| M2-3 anti-PD1 antibody (human IgG4/kappa, C-terminal 6xHis) (antibody, V domains shown) VH: QGHLVESGGDVVLPGGSLRLSCTESGVDLSDFGIHWVRQTPGKGLEWVALIWYDGSKKFYADSVKDRFTISRDNSKNMVYLEMISLRVEDTAMYFCARGIRRGPWFTYWGPGTLVTVST VL: EIVLTQSPVILSLSPGERATLSCRASQSISSDLAWFQQTPGQAPRLIIYDASNRATGIPARFSGSGSGTDFTLTISSLEPEDFAVYYCQQRSNWPLTFGGGTKVEIK | binds |
| M2-2 anti-PD1 antibody (human IgG4/kappa, C-terminal 6xHis) (antibody, V domains shown) VH: QVQLVESGGDVVQPGGSLRLSCSASGLVISDYGMNWVRQAPGKGLEWVGLIWYDGSKKYYSDFVKGRFTISRDNSKNILYLQMNNLRAEDTAMYYCARFLIGATRRGNAMDYWGQGTSVTVSS VL: EVVLTQSPATLSLSPGERATLSCRASQSIDSDLAWSQQKPGQPPRLIIYDASNRATGIPARFSGSGSGTDFTLTISSLEPEDFAVYYCQQRSDWPLTFGGGTKVEIR | binds |
| M1-3 anti-PD1 antibody (human IgG4/kappa, C-terminal 6xHis) (antibody, V domains shown) VH: QEWLVESGGDVVQPGGSLRLSCATSKVTFNDFGIHWVRQAPGKGLEWVAIIWYDGSRNHYADSVRGRFTLSRDNSKNMVHLHMSSLRTEDTAMYYCARGIHSNDDYWGQGTMVTVSS VL: EIVLTQSPATLSLSPGERATLSCRTSQSVSSDLAWFQQKPGQAPRLFIFDASKRVNGIPARFSGSGSGTDFTLTISSLEPEDFAVYYCQQRTDWPLTFGGGSRVEIK | binds |
